Quick reference: pIC50 of the listed items.
Test system: H1N1 (influenza A/New Caledonia/20/99)
Assay: microbe, parasite or virus in culture
Format: cell-based
Details: H1N1, A549, 48 h
Conceptually, pIC50 converts a concentration in mol/L into minus its log10.

Field: example entries. Status: answers known.
molecule	study_system	value_measured
CC1(C)Cc2c(sc(NC(=O)c3ccc(NCC4CCOCC4)cc3)c2C(=O)O)C(C)(C)C1 [Compound #132]	H1N1 (influenza A/New Caledonia/20/99)	8.77
CC1(C)CCc2sc(NC(=O)c3ccc(OC(F)F)cc3)c(C(=O)O)c21 [Compound #39]	H1N1 (influenza A/New Caledonia/20/99)	6.56
CN(CC1CCOCC1)c1ccc(C(=O)Nc2sc3c(c2C(=O)O)CC(C)(C)CC3(C)C)cc1 [Compound #152]	H1N1 (influenza A/New Caledonia/20/99)	9.30
CC1(C)CCc2c(sc(NC(=O)c3cnc(N4CCOCC4)nc3)c2C(=O)O)C1 [#208]	H1N1 (influenza A/New Caledonia/20/99)	6.13
COc1ccc(C(=O)Nc2sc3c(c2C(=O)O)CCC(C)(C)C3)cc1OC [Compound #18]	H1N1 (influenza A/New Caledonia/20/99)	7.30

Fill in: pIC50 of CC1(C)CCc2c(sc(NC(=O)c3ccnc(N4CCOCC4)c3)c2C(=O)O)C1 [#222] is ___
7.29

Same question, CC1(C)CCCc2sc(NC(=O)c3ccccc3)c(C(=O)O)c21 [Compound #42] this time
6.72

Then CC1CC(C)(C)Cc2sc(NC(=O)c3ccc(NCC4CCOCC4)cc3)c(C(=O)O)c21 (stereo not shown) [Compound #157] ?
8.30

Moving on to CC1(C)CCc2c(sc(NC(=O)c3ccc(OC(F)F)cc3)c2C(=O)O)C1 [Compound #23]
7.10

Input CC1(C)CCc2sc(NC(=O)c3ccc(NC4CCOCC4)cc3)c(C(=O)O)c2C1 [#161]
7.82

Follow-up entry: CC1(C)Cc2c(sc(NC(=O)c3ccccn3)c2C(=O)O)C(C)(C)C1 [Compound #90]
6.22

Query CN1CCN(c2ccc(C(=O)Nc3sc4c(c3C(=O)O)CC(C)(C)CC4(C)C)cc2)CC1 [Compound #80] next
6.51

Record: CC1(C)Cc2c(sc(NC(=O)c3ccc(NC4CCCOC4)cc3)c2C(=O)O)C(C)(C)C1 (stereo not shown) [Compound #142]
8.19

Try this molecule next: COc1ccc(C(=O)Nc2sc3c(c2C(=O)O)CCC(C)(C)C3)cc1 [Compound #20]
7.13

Cited source for all entries: patent US11492347B2
